- test details: NCI Yeast Anticancer Drug Screen. Data for the cln2 rad14 strain (AID 165);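 further: 0% = growth equal to vehicle treated cultures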
- settings: S. cerevisiae cln2 rad14 strain, at 50.0 µM (retest, dose inferred, filed as 5.0), hits give high values
This is part of a sample that, as a whole, favours compounds with a hit. Of some 79,000 tested, about 15% had one in any assay.
growth inhibition by entry:
recorded endpoint: growth inhibition (%)

{"columns": ["molecule", "units", "reported measurement"],
 "data": [
  ["CC(O)C(=O)O.CC(O)C(=O)O.[Ni] (stereo not given)", "%", -2],
  ["Clc1ccc(-c2cc(=[N+]3CC[N+](=c4cc(-c5ccc(Cl)cc5)ss4)CC3)ss2)cc1", "%", -9],
  ["Cc1c([N+](=O)[O-])oc2ccc3ccccc3c12", "%", 96],
  ["C/C(=N\\Nc1ccccn1)C1CC[N-]C2C(O)CCCC12.C/C(=N\\Nc1ccccn1)C1CC[N-]C2C(O)CCCC12.[Cu+2] (stereo not given)", "%", 97],
  ["COc1cc([C@@H]2c3cc4c(cc3C[C@@H]3COC(=O)C32)OCO4)cc(OC)c1O (stereo not given in full)", "%", 93],
  ["CC1(C)N=C(N)N=C(N)N1CCCOc1ccc(NC(=O)c2ccc(S(=O)(=O)F)cc2)cc1", "%", 0],
  ["Nc1ncc(CCCCc2ccc(NC(=O)Nc3ccc(S(=O)(=O)F)cc3)cc2)c(N)n1", "%", 57],
  ["Cl[C](Cl)(Cl)[Hg][c]1ccccc1", "%", 99],
  ["[C-]#[O+].[C-]#[O+].[C-]#[O+].[Cl-].[Ru+2].c1ccc([PH+](CC[PH+](c2ccccc2)c2ccccc2)CC[PH+](c2ccccc2)c2ccccc2)cc1", "%", 97],
  ["c1cc2c(cc1NC1=NCCO1)CCCC2", "%", 21],
  ["CC(=O)Nc1ccccc1[As](O[As](c1ccccc1)c1ccccc1NC(C)=O)c1ccccc1 (stereo not given)", "%", 99],
  ["CC(=O)OC1CCC2(C)C3CCC4(C)C(OC(=O)c5ccccc5)CCC4C3CC(Br)C2(O)C1 (stereo not given)", "%", 44],
  ["c1ccc(C(C(=Nc2ccc(Cc3ccc(N=C(C(c4ccccc4)c4ccccc4)N4CC4)cc3)cc2)N2CC2)c2ccccc2)cc1", "%", 62],
  ["COC(=O)C1c2cc3c(c(O)c2C(O)CC1(C)O)C(=O)c1c(O)cc2c(c1C3=O)OC1OC2(C)C(O)C(N(C)C)C1O (stereo not given)", "%", 85],
  ["S=C1NC2(CCCCC2)NC12CCCCC2", "%", 2],
  ["[Cl][Hg][Cl].c1cnccn1", "%", 97],
  ["O=S(=O)(O)c1ccc(Cl)cc1.[Cd]", "%", 11],
  ["CCC[CH2][Sn]([CH2]CCC)([S]C1=NCCS1)[S]C1=NCCS1", "%", 95],
  ["c1cc2c(cc1C1OC[C@H]3[C@@H](c4ccc5c(c4)OCO5)OC[C@@H]13)OCO2 (stereo not given in full)", "%", -8],
  ["O=[N+]([O-])c1cccc(N=Cc2ccc(N(CCCl)CCCl)cc2)c1", "%", 54]
]}

Data origin, for the record: PubChem BioAssay (NCI)
